test: Single dose PK, phase 1, healthy Japanese men; assay type: in vivo, human; conditions: male, human, plasma, sc, 0.1 mg, single SC bolus 0.1 mg, mean
Where a SMILES comes first, the peptide text is derived from it. [ ]: non-standard residue; d: D form. Arg(Me) = CNC(=N)NCCC[C@H](N)C(=O)O; Hyp = O=C(O)[C@@H]1C[C@@H](O)CN1; azaGly = NNC(=O)O

compound | Cmax
CC(=O)O.CNC(=N)NCCC[C@H](NC(=O)[C@H](CC(C)C)NC(=O)NNC(=O)[C@H](Cc1ccccc1)NC(=O)[C@@H](NC(=O)[C@H](CC(N)=O)NC(=O)[C@@H]1C[C@@H](O)CN1C(=O)[C@@H](Cc1ccc(O)cc1)NC(C)=O)[C@@H](C)O)C(=O)N[C@@H](Cc1c[nH]c2ccccc12)C(N)=O [API-MA] (Ac-[dY][Hyp]NTF[azaGly]L[Arg(Me)]W-NH2) | 2.42 ng/mL
